system: T1, Recombinant cynomolgus monkey sgM-CSF (cynomolgus (Macaca fascicularis), UniProt P09603 33-255 (human entry), limits assumed)
T1 construct: used also where only 'cynomolgus M-CSF' is printed (ELISA result, SET); also called cynomolgus sgM-CSF; cyno sgM-CSF
T1 chain: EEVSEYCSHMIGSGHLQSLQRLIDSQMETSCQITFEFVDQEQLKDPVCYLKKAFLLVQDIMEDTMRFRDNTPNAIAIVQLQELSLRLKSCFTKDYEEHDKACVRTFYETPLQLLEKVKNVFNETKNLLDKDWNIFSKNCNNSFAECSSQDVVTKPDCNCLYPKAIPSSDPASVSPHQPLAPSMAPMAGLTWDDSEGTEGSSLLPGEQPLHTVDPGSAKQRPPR
testDescription: soluble equilibrium titration (SET), Fab, monovalent
Description: The monovalent affinity of the antibodies of the present disclosure was determined by soluble equilibrium titration (Haenel et al. (2005) Anal Biochem 339, 182-4).
Listing of recorded pKd by entry.
# pKd: negative log10 of molar concentration; output just the value

For orientation, consider the following solved cases.
Camille, Fab (Fab, V domains shown) VH: QVQLQQSGPGLVKPSQTLSLTCAISGESVSTSSAAWNWIRQSPSRGLEWLGRTYYRSKWKHEYAVSVKSRITINPDTSKNQFSLQLNSVTPEDTAVYYCARDRYYYSAFDYWGQGTLVTVSS VL: QSALTQPASVSGSPGQSITISCTGTSSDVGGYNSVSWYQQHPGKAPKLLIYAVSNRPSGVSNRFSGSKSGNTASLTISGLQAEDEADYYCASYDERFTRVFGGGTKLTVLG	10.60
Meriem, Fab (Fab, V domains shown) VH: QVQLQQSGPGLVKPSQTLSLTCAISGDSVSTSSAAWNWIRQSPSRGLEWLGRTYYRSKWKKEYAQSVKSRITINPDTSKNQFSLQLNSVTPEDTAVYYCARDRYYYSAFDYWGQGTLVTVSS VL: QSALTQPASVSGSPGQSITISCTGTSSDVGGYNSVSWYQQHPGKAPKLIIYAVSNRPSGVSNRFSGSKSGNTASLTISGLQAEDEADYYCASYDERFTRVFGGGTKLTVLG	10.89

Input line: Bench note: what pKd did Madeleine, Fab (Fab, V domains shown) VH: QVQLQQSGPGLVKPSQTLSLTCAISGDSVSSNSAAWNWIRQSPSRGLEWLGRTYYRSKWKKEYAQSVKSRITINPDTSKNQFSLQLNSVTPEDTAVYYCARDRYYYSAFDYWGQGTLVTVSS VL: QSALTQPASVSGSPGQSITISCTGTSSDVGGYNSVSWYQQHPGKAPKLMIYAVSNRPSGVSNRFSGSKSGNTASLTISGLQAEDEADYYCASYDERFTRVFGGGTKLTVLG show?
Output line: 10.52

Input line: Also Caline, Fab (Fab, V domains shown) VH: QVQLQQSGPGLVKPSQTLSLTCAISGDSVSSNSAAWNWIRQSPSRGLEWLGRTYYRSKWKHEYAMSVKSRITINPDTSKNQFSLQLNSVTPEDTAVYYCARDRYYYSAFDYWGQGTLVTVSS VL: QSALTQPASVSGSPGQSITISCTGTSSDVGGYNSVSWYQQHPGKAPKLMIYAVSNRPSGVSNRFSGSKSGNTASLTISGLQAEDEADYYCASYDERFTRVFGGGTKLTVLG , if possible.
Output line: 10.80

Input line: Next binder: Laurine, Fab (Fab, V domains shown) VH: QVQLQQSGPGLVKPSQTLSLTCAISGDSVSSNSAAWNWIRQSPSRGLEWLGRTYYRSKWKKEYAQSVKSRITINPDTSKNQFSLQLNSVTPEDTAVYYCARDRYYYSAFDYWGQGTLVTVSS VL: DIALTQPASVSGSPGQSITISCTGTSSDVGGYNSVSWYQQHPGKAPKLMIYAVSNRPSGVSNRFSGSKSGNTASLTISGLQAEDEADYYCASYDERFTRVFGGGTKLTVLG
Output line: 9.82

Where do the numbers come from? From patent US20180057581A1.
